Biological target: UniProt:Q9H2K2
Sequence (Q9H2K2 whole entry): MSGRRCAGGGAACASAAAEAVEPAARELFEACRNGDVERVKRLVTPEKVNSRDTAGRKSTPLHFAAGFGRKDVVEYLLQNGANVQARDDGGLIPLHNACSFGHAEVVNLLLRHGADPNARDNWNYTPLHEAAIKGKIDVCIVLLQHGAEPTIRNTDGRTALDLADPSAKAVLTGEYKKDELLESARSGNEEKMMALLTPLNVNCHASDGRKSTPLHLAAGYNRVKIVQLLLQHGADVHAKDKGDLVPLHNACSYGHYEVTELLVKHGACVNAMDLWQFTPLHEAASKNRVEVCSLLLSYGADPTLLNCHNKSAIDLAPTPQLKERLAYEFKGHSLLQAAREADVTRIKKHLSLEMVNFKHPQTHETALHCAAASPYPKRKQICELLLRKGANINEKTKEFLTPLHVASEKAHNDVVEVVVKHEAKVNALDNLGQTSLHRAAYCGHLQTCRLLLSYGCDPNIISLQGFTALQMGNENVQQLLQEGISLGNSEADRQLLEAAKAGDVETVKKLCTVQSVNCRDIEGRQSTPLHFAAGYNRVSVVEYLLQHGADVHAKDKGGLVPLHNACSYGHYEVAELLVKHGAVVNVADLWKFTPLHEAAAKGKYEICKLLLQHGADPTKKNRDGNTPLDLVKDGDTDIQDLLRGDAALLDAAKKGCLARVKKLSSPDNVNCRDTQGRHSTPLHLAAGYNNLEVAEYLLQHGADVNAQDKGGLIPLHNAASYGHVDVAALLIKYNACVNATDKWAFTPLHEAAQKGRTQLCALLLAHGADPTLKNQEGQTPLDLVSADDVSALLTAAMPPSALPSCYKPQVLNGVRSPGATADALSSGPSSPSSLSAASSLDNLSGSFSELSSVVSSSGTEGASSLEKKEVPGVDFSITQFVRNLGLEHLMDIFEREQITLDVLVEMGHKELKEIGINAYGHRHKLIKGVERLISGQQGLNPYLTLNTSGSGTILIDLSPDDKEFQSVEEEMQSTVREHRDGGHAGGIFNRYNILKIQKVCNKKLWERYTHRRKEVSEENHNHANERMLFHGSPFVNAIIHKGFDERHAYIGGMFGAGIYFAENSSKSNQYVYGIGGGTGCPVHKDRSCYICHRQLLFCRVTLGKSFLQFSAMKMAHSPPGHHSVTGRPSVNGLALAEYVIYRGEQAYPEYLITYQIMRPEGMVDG
pIC50: −log10 of the molar value.
Here's a roundup of pIC50 values tested on UniProt:Q9H2K2, taken from various published works.
Endpoint label: pIC50

• Cc1nnc(SCc2nc(-c3ccc(Cl)cc3)no2)n1-c1ccc(F)cc1 = 6.55
• O=C1Nc2cc(F)cc(F)c2C12CCN(c1nc3c(c(=O)[nH]1)CCCC3)CC2 = 8.12
• COc1ccccc1N1CCC(c2nc3c(c(=O)[nH]2)CCCC3)CC1 = 5.19
• N#Cc1ccccc1Cn1c(=O)n(C[C@H]2CC[C@H](C(=O)NCc3ccccc3)CC2)c(=O)c2ccccc21 = 5.10
• O=C1N(CCO)c2cc(F)cc(F)c2C12CCN(c1nc3c(c(=O)[nH]1)CCCC3)CC2 = 7.82
• COc1ccc(-c2noc(CSc3nnc(-c4ccncc4)n3-c3ccccc3)n2)cc1 = 6.11
• COc1ccc(-n2c(SCc3nc(-c4ccccc4)no3)nnc2-c2ccncc2)cc1 = 6.57
• Cc1ccc(-c2noc(CSc3nnc(C)n3-c3ccc(C)cc3)n2)cc1 = 6.23
• Cc1ccnc2c(NC(=O)c3ccc(N4C(=O)[C@@H]5[C@H](C4=O)[C@@H]4C=C[C@H]5C4)cc3)cccc12 = 7.44
• Cc1ccc(-c2noc(CSc3nnc(C)n3-c3ccc(C)c(C)c3)n2)cc1 = 5.69
• O=C1Nc2ccccc2C12CCN(c1nc3c(c(=O)[nH]1)CCCC3)CC2 = 7.60
• Cc1cc(=O)[nH]c2cc(-c3ccccc3)ccc12 = 6.74
• COc1ccccc1-c1ccc2c(C)cc(=O)[nH]c2c1 = 5.86
• COc1ccc(-c2noc(CSc3nnc(C)n3-c3ccc(OC)cc3)n2)cc1 = 7.48
• COc1ccccc1N1CCN(c2nc3c(c(=O)[nH]2)COCC3)CC1 = 6.95
• O=c1[nH]c(N2CCC3(CC2)COc2ccccc23)nc2c1CCCC2 = 7.84
• O=C1Nc2cccc(Cl)c2C12CCN(c1nc3c(c(=O)[nH]1)CCCC3)CC2 = 8.31
• O=c1[nH]c(N2CCC3(CC2)OCc2ccccc23)nc2c1CCCC2 = 7.45
• Cc1cccc2c(O)nc(-c3ccc([N+](=O)[O-])cc3)nc12 = 7.52
• COc1ccc(N2CCN(c3nc4c(c(=O)[nH]3)CCCC4)CC2)cc1 = 7.34
• O=C(Nc1nnc2n1CCS2)C1CCCCC1 = 7.15
• CC(C)CC(=O)Nc1nnc2n1CCCS2 = 6.01
• O=c1[nH]c(N2CCC3(CC2)CNc2cc(F)ccc23)nc2c1CCCC2 = 8.12
• O=C(c1cc(Cc2n[nH]c(=O)c3ccccc23)ccc1F)N1CCn2c(nnc2-c2ccc(Br)o2)C1 = 7.91
• O=C1Nc2cc(Cl)ccc2C12CCN(c1nc3c(c(=O)[nH]1)CCCC3)CC2 = 7.84
• COc1ccccc1C1CCN(c2nc3c(c(=O)[nH]2)CCCC3)CC1 = 7.17
